Values from ChEMBL document CHEMBL1131960

Provide the recorded EC50 for the entries that follow.
tested on: CCRF-CEM; assay: Compound was evaluated for its effective concentration (potency) to inhibit the growth of HIV-1 in CEM cell culture.; type: functional, cell-based; conditions: Homo sapiens
One number for each entry, in nM.

# count of solved cases: 3
| compound | measured.on | unit.symbol | EC50 |
| --- | --- | --- | --- |
| COC(=O)C(C)NP(=O)(OCC1CCC(n2cnc3c(N)ncnc32)O1)Oc1cccc(Br)c1 (configuration not stated) | CCRF-CEM | nM | 2.3 |
| COC(=O)C(C)NP(=O)(OCC1CCC(n2cnc3c(N)ncnc32)O1)Oc1ccccc1 (configuration not stated) | CCRF-CEM | nM | 16 |
| COC(=O)C(C)NP(=O)(OCC1CCC(n2cnc3c(N)ncnc32)O1)Oc1cccc(I)c1 (configuration not stated) | CCRF-CEM | nM | 2.2 |

Respectfully, I request EC50 for each entry included below.
1. COC(=O)C(C)NP(=O)(OCC1C=CC(n2cnc3c(N)ncnc32)O1)Oc1ccc(I)cc1 (configuration not stated)
2. Nc1ncnc2c1ncn2[C@H]1CC[C@@H](CO)O1
3. COC(=O)C(C)NP(=O)(OCC1C=CC(n2cnc3c(N)ncnc32)O1)Oc1ccc(Br)cc1 (configuration not stated)

1: 2.3; 2: 4000; 3: 3.2

Fill in the blank: the reported EC50 of COC(=O)C(C)NP(=O)(OCC1C=CC(n2cnc3c(N)ncnc32)O1)Oc1ccccc1 (configuration not stated) is ____. 5.5
